Molecular target: Histidine--tRNA ligase (Leishmania infantum) (UniProt A4I591)
Sequence (A4I591 as listed by the source): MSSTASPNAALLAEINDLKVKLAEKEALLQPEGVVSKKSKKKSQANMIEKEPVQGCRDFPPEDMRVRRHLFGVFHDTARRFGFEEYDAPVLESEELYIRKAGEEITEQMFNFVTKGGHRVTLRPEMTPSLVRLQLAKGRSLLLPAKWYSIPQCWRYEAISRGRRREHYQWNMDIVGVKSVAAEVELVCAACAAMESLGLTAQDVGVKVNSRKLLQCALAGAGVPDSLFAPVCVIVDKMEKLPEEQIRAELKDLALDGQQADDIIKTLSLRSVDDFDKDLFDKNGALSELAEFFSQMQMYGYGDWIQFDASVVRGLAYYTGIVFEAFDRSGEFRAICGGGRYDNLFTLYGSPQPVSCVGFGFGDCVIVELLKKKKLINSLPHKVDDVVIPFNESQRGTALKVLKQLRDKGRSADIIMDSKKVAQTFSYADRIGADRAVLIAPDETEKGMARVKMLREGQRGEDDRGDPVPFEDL
Assay: Leishmania infantum Histidine tRNA synthetase (LdHisRS)
Format: functional
Parameters: scale not given: in the data most compounds retested in dose-response had high values
Settings: 30 µM
The campaign covered roughly 69,000 compounds. About 420 (0.61%) showed an effect of 50% or more. The full list was thinned out, with strong results kept by preference.
Entries and their Percent Effect
attribute.measured: Percent Effect (%)

[[record]]
compound = "NCC1Cc2cc(Oc3cc(F)c(CN4CCCC4)c(F)c3)ccc2O1 (stereo unspecified)"
assayed_system = "Histidine--tRNA ligase (Leishmania infantum) (UniProt A4I591)"
attribute_measured = "Percent Effect"
unit_abbreviation = "%"
measurement = 57.5

[[record]]
compound = "Cc1csc(CN2CC[C@H]3C[C@@H](c4noc(C)n4)O[C@@H]3C2)n1"
assayed_system = "Histidine--tRNA ligase (Leishmania infantum) (UniProt A4I591)"
attribute_measured = "Percent Effect"
unit_abbreviation = "%"
measurement = 12.9

[[record]]
compound = "O=C(Nc1c(N2CCCC2)cccc1N1CCCC1)c1cnsn1"
assayed_system = "Histidine--tRNA ligase (Leishmania infantum) (UniProt A4I591)"
attribute_measured = "Percent Effect"
unit_abbreviation = "%"
measurement = 15.4

[[record]]
compound = "CCCc1ccc(CN2CCN(C(=O)NCC)[C@H]3CS(=O)(=O)C[C@H]32)o1"
assayed_system = "Histidine--tRNA ligase (Leishmania infantum) (UniProt A4I591)"
attribute_measured = "Percent Effect"
unit_abbreviation = "%"
measurement = 13.2

[[record]]
compound = "Cc1csc(C2(NCc3csc(C4CC4)n3)CCCC2)n1"
assayed_system = "Histidine--tRNA ligase (Leishmania infantum) (UniProt A4I591)"
attribute_measured = "Percent Effect"
unit_abbreviation = "%"
measurement = 8.6

[[record]]
compound = "O=C([C@@H]1CC[C@@H]2[C@@H](CCN2CCOCc2ccccc2)O1)N1CCCC1"
assayed_system = "Histidine--tRNA ligase (Leishmania infantum) (UniProt A4I591)"
attribute_measured = "Percent Effect"
unit_abbreviation = "%"
measurement = 16

[[record]]
compound = "Cc1cccc(CN2C[C@@H]3OCCN(CC(=O)N(C)C)[C@@H]3C2)c1"
assayed_system = "Histidine--tRNA ligase (Leishmania infantum) (UniProt A4I591)"
attribute_measured = "Percent Effect"
unit_abbreviation = "%"
measurement = 13.5

[[record]]
compound = "O=C(Nc1c(N2CCCC2)cccc1N1CCCC1)c1cnccn1"
assayed_system = "Histidine--tRNA ligase (Leishmania infantum) (UniProt A4I591)"
attribute_measured = "Percent Effect"
unit_abbreviation = "%"
measurement = 30.8

[[record]]
compound = "c1csc(C2(NCc3csc(C4CC4)n3)CCCC2)n1"
assayed_system = "Histidine--tRNA ligase (Leishmania infantum) (UniProt A4I591)"
attribute_measured = "Percent Effect"
unit_abbreviation = "%"
measurement = 51.6

[[record]]
compound = "O=C(c1cnccn1)N1CCN2C[C@H](OCC3CC3)C[C@H]2C1"
assayed_system = "Histidine--tRNA ligase (Leishmania infantum) (UniProt A4I591)"
attribute_measured = "Percent Effect"
unit_abbreviation = "%"
measurement = 15.1

[[record]]
compound = "O=C(c1cccnc1)N1CCN2C[C@H](OCc3ccccc3)C[C@H]2C1"
assayed_system = "Histidine--tRNA ligase (Leishmania infantum) (UniProt A4I591)"
attribute_measured = "Percent Effect"
unit_abbreviation = "%"
measurement = 2

